Tested on: AP-1/TRE-activity in ChaGo-K-1 cells transfected with 5×TRE-LacZ
Assay: Transrepression Reporter Gene Assay (TRE-LacZ transfected ChaGo-K-1 cells, PMA stimulated)
Assay type: cell-based, human
Conditions: downregulation of β-galactosidase activity; PMA 10 ng/ml; Dexamethasone 10^-6 M set as 100 percent control; read-out: Agonism TRE IC50
Reported Endpoint: pIC50
On this scale, pIC50 is minus log10 of a concentration expressed in M (mol/L).

Inquiry: Kindly indicate its recorded pIC50. Item: C[C@H](NC(=O)C(C)(F)F)[C@H](Oc1ccc2c(cnn2-c2cccc(C(=O)N[C@H]3CC[S+]([O-])C3)c2)c1)c1ccc2c(c1)OCOC2 (single isomer, unassigned)
Reply text: 9.22
